Test system: HL-60
Test: Antitumor activity against human HL-60 cells assessed as growth inhibition at 10 uM relative to control
Assay type: functional
Details: read-out: GI

| SMILES RECORD | SYSTEM | LIMIT OPERATOR | inhibition of growth at 10 µM [%] |
| --- | --- | --- | --- |
| Cc1cc(C)n(-c2nc(-c3ccc(Cl)cc3)c(C#N)c(N3CCOCC3)n2)n1 | HL-60 | < | 1 |
| CSc1nc(-c2ccc(Cl)cc2)c(C#N)c(N2CCOCC2)n1 | HL-60 | < | 1 |
| N#Cc1c(-c2ccc(Cl)cc2)nc(N/N=C/c2cccc(O)c2)nc1N1CCOCC1 | HL-60 | = | 33.4 |
| N#Cc1c(-c2ccc(Cl)cc2)nc(N/N=C/c2ccco2)nc1N1CCOCC1 | HL-60 | < | 1 |
| N#Cc1c(-c2ccc(Cl)cc2)nc(N/N=C/c2cccc(Br)c2)nc1N1CCOCC1 | HL-60 | = | 59.4 |
| COc1cc(/C=N/Nc2nc(-c3ccc(Cl)cc3)c(C#N)c(N3CCOCC3)n2)cc(OC)c1OC | HL-60 | = | 40.8 |
